Protocol summary: Cytotoxicity against human L02 cells after 48 hrs by MTT assay
Type: cell-based
Conditions: L02, 48 h
pIC50: −log10 of the molar value.
Quantity measured: pIC50

chem_smiles=O=c1[nH]cc(F)c(=O)[nH]1 measured=4.25
chem_smiles=COC(=O)c1cc(Br)ccc1OC(=O)COc1cc(O)c2c(=O)cc(-c3ccccc3)oc2c1 measured=3.56

* * *

Protocol summary: Cytotoxicity against BALB/c mouse T cells after 48 hrs by MTT assay
Type: cell-based, T-cell
Mark each entry Condition met if its CC50 at 48 h sits below 400 µM, and Condition not met for all others.

compound="O=c1cc(-c2ccccc2)oc2cc(O)cc(O)c12 [CHRYSIN]" cat="Condition not met"
compound=O=C(COc1cc(O)c2c(=O)cc(-c3ccccc3)oc2c1)Oc1cc(Cl)cc(Cl)c1C(=O)O cat="Condition met"
compound=COC(=O)c1ccc(C)cc1OC(=O)COc1cc(O)c2c(=O)cc(-c3ccccc3)oc2c1 cat="Condition met"
compound=O=C(COc1cc(O)c2c(=O)cc(-c3ccccc3)oc2c1)Oc1c(Br)cccc1C(=O)O cat="Condition met"
compound=COC(=O)c1ccc(Cl)cc1OC(=O)COc1cc(O)c2c(=O)cc(-c3ccccc3)oc2c1 cat="Condition met"
compound=COC(=O)c1ccccc1OC(=O)COc1cc(O)c2c(=O)cc(-c3ccccc3)oc2c1 cat="Condition met"

* * *

Protocol summary: Immunosuppressive activity in BALB/c mouse T cells assessed as inhibition of anti-CD3/anti-CD28-stimulated cell proliferation after 72 hrs by MTT assay
Type: functional, cell-based
Quantity measured: IC50 (µM)

chem_smiles=COC(=O)c1cc(O)ccc1OC(=O)COc1cc(O)c2c(=O)cc(-c3ccccc3)oc2c1 quantity_measured=IC50 measured=29.5
chem_smiles=O=C(COc1cc(O)c2c(=O)cc(-c3ccccc3)oc2c1)Oc1c(Cl)cccc1C(=O)O quantity_measured=IC50 measured=38.7
chem_smiles=O=C(COc1cc(O)c2c(=O)cc(-c3ccccc3)oc2c1)Oc1cccc(Cl)c1C(=O)O quantity_measured=IC50 measured=38.9
chem_smiles=O=C(COc1cc(O)c2c(=O)cc(-c3ccccc3)oc2c1)Oc1cccc(F)c1C(=O)O quantity_measured=IC50 measured=40.3
chem_smiles=COC(=O)c1cc(F)ccc1OC(=O)COc1cc(O)c2c(=O)cc(-c3ccccc3)oc2c1 quantity_measured=IC50 measured=6.82

* * *

Protocol summary: Cytotoxicity against BALB/c mouse T cells after 48 hrs by MTT assay
Assay type: cell-based, T-cell
The compounds listed here are annotated with their CC50 at 48 h.
Quantity measured: CC50 at 48 h (µM)

chem_smiles=Cc1cccc(OC(=O)COc2cc(O)c3c(=O)cc(-c4ccccc4)oc3c2)c1C(=O)O quantity_measured="CC50 at 48 h" value_operator== measured=298
chem_smiles=O=C(COc1cc(O)c2c(=O)cc(-c3ccccc3)oc2c1)Oc1cccc(O)c1C(=O)O quantity_measured="CC50 at 48 h" value_operator== measured=338
chem_smiles=COC(=O)c1ccc(Br)cc1OC(=O)COc1cc(O)c2c(=O)cc(-c3ccccc3)oc2c1 quantity_measured="CC50 at 48 h" value_operator== measured=326
chem_smiles=Cc1cccc(C(=O)O)c1OC(=O)COc1cc(O)c2c(=O)cc(-c3ccccc3)oc2c1 quantity_measured="CC50 at 48 h" value_operator== measured=299
chem_smiles=COC(=O)c1cc(C)ccc1OC(=O)COc1cc(O)c2c(=O)cc(-c3ccccc3)oc2c1 quantity_measured="CC50 at 48 h" value_operator== measured=306
chem_smiles=O=C(COc1cc(O)c2c(=O)cc(-c3ccccc3)oc2c1)Oc1cccc(Cl)c1C(=O)O quantity_measured="CC50 at 48 h" value_operator== measured=366
chem_smiles=COC(=O)c1cccc(OC)c1OC(=O)COc1cc(O)c2c(=O)cc(-c3ccccc3)oc2c1 quantity_measured="CC50 at 48 h" value_operator== measured=196
chem_smiles=O=C(COc1cc(O)c2c(=O)cc(-c3ccccc3)oc2c1)Oc1cccc(F)c1C(=O)O quantity_measured="CC50 at 48 h" value_operator== measured=319
chem_smiles=COC(=O)c1cc(Cl)ccc1OC(=O)COc1cc(O)c2c(=O)cc(-c3ccccc3)oc2c1 quantity_measured="CC50 at 48 h" value_operator=> measured=436
chem_smiles=COC(=O)c1cc(O)ccc1OC(=O)COc1cc(O)c2c(=O)cc(-c3ccccc3)oc2c1 quantity_measured="CC50 at 48 h" value_operator== measured=263
chem_smiles=COC(=O)c1cc(Br)ccc1OC(=O)COc1cc(O)c2c(=O)cc(-c3ccccc3)oc2c1 quantity_measured="CC50 at 48 h" value_operator=> measured=450
chem_smiles=O=C(COc1cc(O)c2c(=O)cc(-c3ccccc3)oc2c1)Oc1c(Cl)cccc1C(=O)O quantity_measured="CC50 at 48 h" value_operator== measured=366
